assay: CCTE_Mundy_HCI_Cortical_Synap_Neur_Matur_CellBodySpotCount: CCTE's Synaptogenesis and Neurite Maturation Assay in rat cortical cells for Cell Body Spot Count, Mundy Lab (AID 2284223)
The source made the active and inactive calls. Rule for the calls: active = hit-call score of the fitted dose curve at least 0.9, where 1 is the maximum; inactive = score below 0.9.
Your answer must be one of the following: y = active, n = inactive

Below, 4 compounds whose answers are already recorded.
For this compound, state the assay outcome: CN1C(=O)CN=C(c2ccccc2)c2cc(Cl)ccc21
n

Query: recorded result category for CC1(C)C(C=C(Cl)Cl)C1C(=O)O[C@H](C#N)c1cccc(Oc2ccccc2)c1 (stereo partly specified) in this test
y

Called result for CCC[CH2][Sn]([CH2]CCC)([CH2]CCC)[O][Sn]([CH2]CCC)([CH2]CCC)[CH2]CCC
y

Assay result, entry C#CCN(C)[C@H](C)Cc1ccccc1 — outcome?
n

***
Tell me the assay call for O.O.O.O.O.[Cd+2].[Cd+2].[Cl-].[Cl-].[Cl-].[Cl-] please.
n

Hi team, can someone confirm the assay call for [CH3][Sn]([CH3])[CH3] ?
n

###

Test: IUF_NPC2-5_cytotoxicity_72hr: Cytotoxicity Assessment at 72 hours in the Leibniz Research Institute for Environmental Medicine (IUF) Neural Progenitor Cell Migration and Differentiation Assay for Cytotoxicity (NPC2-5) (AID 2284306);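 note: LDH release into supernatant measured by resorufin fluorescence marking membrane damage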
Experimental: IUF_NPC2-5 is a cell-based, multiplexed assay that uses hNPC, a human primary neural progenitor cells, with measurements taken at 72 or 120 hours after chemical dosing in a 96-well plate. […] The processes radial glia migration, neuronal and oligodendrocyte migration as well as neuronal differentiation, neuronal morphology and oligodendrocyte differentiation are studied using automated phase contrast imaging and automated fluorescence imaging in combination with high content image analysis. […]
Results filed as inconclusive are left out. Calls of active or inactive are those of the source. Rule for the calls: active = hit-call score of the fitted dose curve at least 0.9, where 1 is the maximum; inconclusive = response in the unintended direction; inactive = score below 0.9.
I would appreciate it if you answered using one of these outcomes: active, inactive

How was CC1(C)C(C=C(Cl)Cl)C1C(=O)O[C@H](C#N)c1cccc(Oc2ccccc2)c1 (some centres not stated) classified in this test?
inactive

GET /call?item= C/C(=C/C=C/[C@@H](C)C(=O)O)[C@H]1CN[C@H](C(=O)O)[C@H]1CC(=O)O returns the recorded outcome of this test.
inactive

Called result for CC(=O)[O-].[Tl+]
inactive

Would you mind telling me which call this test gave COP(=O)(OC)SCN1C(=O)c2ccccc2C1=O ?
inactive

# outcome recorded in this test, key = Brc1ccc(Oc2cc(Br)c(Br)cc2Br)c(Br)c1
inactive

For this compound, state the assay outcome: CC1(C)[C@H](C=C(Cl)Cl)[C@H]1C(=O)OCc1c(F)c(F)cc(F)c1F
inactive

Please turn your attention to the following entry.
Any idea what this test logged for CC1(C)[C@H](C(=O)O[C@H](C#N)c2cccc(Oc3ccccc3)c2)[C@@H]1C=C(Br)Br ?
active

###

Assay: IUF_NPC2-5_viability_120hr: Viability Assessment at 120 hours in the Leibniz Research Institute for Environmental Medicine (IUF) Neural Progenitor Cell Migration and Differentiation Assay (NPC2-5) (AID 2284312)
Method: IUF_NPC2-5 is a cell-based, multiplexed assay that uses hNPC, a human primary neural progenitor cells, with measurements taken at 72 or 120 hours after chemical dosing in a 96-well plate. […] The processes radial glia migration, neuronal and oligodendrocyte migration as well as neuronal differentiation, neuronal morphology and oligodendrocyte differentiation are studied using automated phase contrast imaging and automated fluorescence imaging in combination with high content image analysis. […]
Calls of active or inactive are those of the source. How the source made its calls: active means hit-call score of the fitted dose curve at least 0.9, where 1 is the maximum; inactive means score below 0.9.
Field 'call' accepts active, inactive

Record excerpt, results attached:
What is the recorded call for this molecule in the test? [O-][Cl+3]([O-])([O-])O
inactive

Given CC1(C)[C@H](C(=O)O[C@H](C#N)c2cccc(Oc3ccccc3)c2)[C@@H]1C=C(Br)Br , state the outcome it received in this test.
inactive

Hi, sorry to bother you, what did the test record for CC1(C)[C@H](C=C(Cl)Cl)[C@H]1C(=O)OCc1c(F)c(F)cc(F)c1F ?
inactive

Given COP(=O)(OC)SCN1C(=O)c2ccccc2C1=O , state the outcome it received in this test.
inactive

For the next question, use this molecule.
Answer briefly: the call reported for CC(=O)[O-].[Tl+] in this assay.
active

###

assay: CCTE_Shafer_MEA_dev_mutual_information_norm: CCTE's Neural Network Formation Assay for Mutual Information Normalization, Shafer Lab (AID 2284091);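 for AC50: mutual information between electrodes summarised as area under curve across four recording days; potency is for a decrease in mutual information relative to DMSO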
The source made the active and inactive calls. Rule for the calls: active = hit-call score of the fitted dose curve at least 0.9, where 1 is the maximum; inactive = score below 0.9.
readout type: AC50

Query: AC50; subject: CCOP(=O)(Oc1cnc(C(C)(C)C)nc1)OC(C)C (stereo not given)
inactive

Could you share which AC50 value was measured for c1ccc2c(c1)cc1ccc3cccc4ccc2c1c34 ?
inactive

Which value of AC50 has been reported for CC1(C)[C@@H](C=C(Cl)Cl)[C@@H]1C(=O)O[C@@H](C#N)c1ccc(F)c(Oc2ccccc2)c1 in the records?
2390 nM (active)

Entry Cn1nc(C(F)(F)F)c(CS(=O)(=O)C2=NOC(C)(C)C2)c1OC(F)F : reported AC50 = ?
inactive

Please give the measured AC50 for this molecule: O=C(O)CNCP(=O)(O)O
inactive

Suppose we examine the molecule O.O.O.O.O.[Cd+2].[Cd+2].[Cl-].[Cl-].[Cl-].[Cl-] ; what AC50 value has been reported?
135 nM (active)

Returns the measured AC50 for the input molecule. Input: C[n+]1ccc(-c2ccccc2)cc1
inactive

// returns reported AC50 for input CNC(=N[N+](=O)[O-])NCC1CCOC1 (stereo not given)
inactive

Proceeding to the next molecule to report its AC50.
Can you share its AC50? I mean this molecule: C#CCN(C)[C@H](C)Cc1ccccc1
inactive

###

target: Caspase-1 (Homo sapiens); experiment: NVS_ENZ_hCASP1: NovaScreen (NVS) Enzymatic Assay for human Caspase 1 (CASP1) (AID 2283132)
Inconclusive results are not listed. Calls of active or inactive are those of the source. Rule for the calls: active = hit-call score of the fitted dose curve at least 0.9, where 1 is the maximum; inconclusive = response in the unintended direction; inactive = score below 0.9.
The categories you may choose from are active, inactive

Given CN(C)c1ccc(C(=C2C=CC(=[N+](C)C)C=C2)c2ccc(N(C)C)cc2)cc1 , state the outcome it received in this test.
inactive

Please share the test call associated with CCOc1cccc(-n2cc(C(=O)N3CCN(c4cc(C(=O)O)c5ccccc5c4)CC3)nc2-c2ccc(C)cc2)c1 .
inactive

Could you kindly confirm the outcome this assay logged for O=S(=O)(O)c1ccc(N=Nc2c(O)ccc3cc(S(=O)(=O)O)ccc23)cc1 ?
active

Would you kindly look at the next entry?
Recorded call for CCC(O)=C1C(=O)CC(C(=O)O)CC1=O (centres undefined) ?
inactive

###

target: human Phosphoinositide 3-kinase alpha (PI3Ka), PIK3CA (gene 5290); test: NVS_ENZ_hPI3Ka: NovaScreen (NVS) Enzymatic Assay for human Phosphoinositide 3-kinase alpha (PI3Ka) (AID 2283196)
Inconclusive results are not listed. The source made the active and inactive calls. How the source made its calls: active means hit-call score of the fitted dose curve at least 0.9, where 1 is the maximum; inconclusive means response in the unintended direction; inactive means score below 0.9.
API: response.call in Yes (active), No (inactive)

Completed entries (count: 3):
For this compound, state the assay outcome: Nc1ccc(-c2ccc(N)c(N)c2)cc1N
No

# fetch the recorded call for O=c1c2ccccc2c(=O)c2c1cc(Cl)c1[nH]c3c([nH]c12)c(Cl)cc1c(=O)c2ccccc2c(=O)c13 here
Yes

Lab log entry: CC(C)(c1cc(Cl)c(O)c(Cl)c1)c1cc(Cl)c(O)c(Cl)c1 — outcome as called in the assay?
Yes

Next:
Recorded test outcome, item ClCC(Cl)Cl
No

###

read-out: Monokine induced gamma interferon (MIG), CXCL9 (gene 4283); assay: BSK_3C_MIG: BioMAP Diversity Plus: 3C Assay for Monokine induced gamma interferon (MIG) Biomarker Activity (AID 2283021); conditions: primary human endothelial cells (HUVEC); actives raise or lower the signal
Activity calls are given as the source filed them. The calls were made as follows: active = hit-call score of the fitted dose curve at least 0.9, where 1 is the maximum; inactive = score below 0.9.
Output constraint: value belongs to true (active), false (inactive)

GET /call?item= O=S(=O)(c1ccccc1)c1ccccc1 returns the recorded outcome of this test.
false

Test call for this molecule, please: Clc1ccc(-c2ccccc2)cc1
false

Hey, what did the test say about O=C1C(Cl)=C(Cl)C(=O)C(Cl)=C1Cl ?
true

Query: recorded result category for CCc1cc(C)cc(CC)c1-c1c(OC(=O)C(C)(C)C)n2n(c1=O)CCOCC2 in this test
false

Hi, do you know how CCCCCCCCCCCC#N came out in this test?
false

Check the results log: what was the call for O=P1(NCCCl)OCCCN1CCCl (stereo not drawn) ?
false

Entry C=CCN(CC=C)C(=O)C(Cl)Cl : call = ?
false

Next molecule, please.
Outcome logged for COC(C)(C)CCC[C@H](C)C/C=C/C(C)=C/C(=O)OC(C)C in this assay:
true

###

experiment: CCTE_Shafer_MEA_dev_spike_duration_mean: CCTE's Neural Network Formation Assay for Mean Spike Duration, Shafer Lab (AID 2284051);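 note: mean network spike duration pooled as area under curve over DIV 5 to 12 recordings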
Calls of active or inactive are those of the source. How the source made its calls: active means hit-call score of the fitted dose curve at least 0.9, where 1 is the maximum; inactive means score below 0.9.
Respond only with the outcome that fits, drawn from Yes = active, No = inactive

For CC1(C)[C@@H](C=C(Cl)Cl)[C@@H]1C(=O)O[C@@H](C#N)c1ccc(F)c(Oc2ccccc2)c1 , which call appears in the assay record?
Yes

More entries:
Which outcome was entered for the compound CN[C@]1(c2ccccc2Cl)CCCCC1=O in this test?
No

Identify the outcome logged in this assay for the compound shown: CP(=O)(O)CCC(N)C(=O)O (centres undefined)
No

Hi, sorry to bother you, what did the test record for Brc1ccc(Oc2cc(Br)c(Br)cc2Br)c(Br)c1 ?
Yes

Reference for the values: PubChem BioAssay (EPA / NIEHS)
